- procedure-summary: Rat pharmacokinetic-pharmacodynamic model, skin concentration
- Assay type: in vivo
- cond: topical, 400 mg of 3% cream on 16 cm^2, once daily for 5 days, 3% cream 400 mg once daily 5 days, 24 h after last dose
property-label: concentration at 24 h after the last dose (ng/g)
All answers are understood in ng/g, so give the number only.

Task item: Name the recorded concentration at 24 h after the last dose of the item NC/C=C(\F)C(F)(F)S(=O)(=O)c1ccccc1 in your answer.
Reply: 31700

* * *

Quick reference for log10 IC50 among some molecules
- assayed-target: Human recombinant LOXL2 (Homo sapiens)
- Construct: purchased R&D Systems
- Sequence (Q9Y4K0 26-774): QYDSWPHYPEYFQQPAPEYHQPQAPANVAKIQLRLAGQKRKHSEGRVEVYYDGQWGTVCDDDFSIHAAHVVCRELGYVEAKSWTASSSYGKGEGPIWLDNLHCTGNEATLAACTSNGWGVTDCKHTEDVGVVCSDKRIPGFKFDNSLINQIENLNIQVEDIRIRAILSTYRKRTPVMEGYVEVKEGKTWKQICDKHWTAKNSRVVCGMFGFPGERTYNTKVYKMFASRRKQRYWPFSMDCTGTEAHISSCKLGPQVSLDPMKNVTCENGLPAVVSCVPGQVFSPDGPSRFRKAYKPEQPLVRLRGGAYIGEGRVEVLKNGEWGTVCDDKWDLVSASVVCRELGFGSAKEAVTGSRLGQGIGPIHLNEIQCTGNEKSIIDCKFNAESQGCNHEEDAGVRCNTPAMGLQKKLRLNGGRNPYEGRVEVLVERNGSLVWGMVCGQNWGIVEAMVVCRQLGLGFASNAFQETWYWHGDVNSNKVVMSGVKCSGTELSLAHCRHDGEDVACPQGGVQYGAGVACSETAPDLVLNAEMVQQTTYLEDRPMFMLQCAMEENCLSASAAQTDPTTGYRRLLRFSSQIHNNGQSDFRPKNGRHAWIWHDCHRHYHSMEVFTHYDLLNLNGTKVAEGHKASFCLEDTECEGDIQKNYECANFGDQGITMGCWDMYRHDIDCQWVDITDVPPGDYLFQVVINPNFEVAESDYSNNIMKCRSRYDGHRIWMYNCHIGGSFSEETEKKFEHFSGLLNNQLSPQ
- procedure-summary: Amplex Red oxidation assay, LOXL2 inhibition
- Type: biochemical
- cond: 30 min pre-incubation; read-out: LOXL2 IC50
Annotation: log10 of IC50, nM basis.

Field: example entries. Status: answers known.
molecule: NCC(=CF)COc1ccccc1
log10 IC50: 3.98
--
molecule: N#CCCN [BAPN, β-aminoproprionitrile, reference compound]
log10 IC50: 2.59
--
molecule: NC/C=C(\F)COc1ccccc1
log10 IC50: 3.04

Task item: Name the recorded log10 IC50 of the item NC/C=C(\F)CS(=O)(=O)c1ccccc1 in your answer.
Reply: 2.78

Task item: Name the recorded log10 IC50 of the item NC/C=C(\F)CNc1ccccc1 in your answer.
Reply: 3.53

* * *

- assayed-target: Human Recombinant MAO-B (Homo sapiens, UniProt P27338)
- Sequence (P27338 whole entry): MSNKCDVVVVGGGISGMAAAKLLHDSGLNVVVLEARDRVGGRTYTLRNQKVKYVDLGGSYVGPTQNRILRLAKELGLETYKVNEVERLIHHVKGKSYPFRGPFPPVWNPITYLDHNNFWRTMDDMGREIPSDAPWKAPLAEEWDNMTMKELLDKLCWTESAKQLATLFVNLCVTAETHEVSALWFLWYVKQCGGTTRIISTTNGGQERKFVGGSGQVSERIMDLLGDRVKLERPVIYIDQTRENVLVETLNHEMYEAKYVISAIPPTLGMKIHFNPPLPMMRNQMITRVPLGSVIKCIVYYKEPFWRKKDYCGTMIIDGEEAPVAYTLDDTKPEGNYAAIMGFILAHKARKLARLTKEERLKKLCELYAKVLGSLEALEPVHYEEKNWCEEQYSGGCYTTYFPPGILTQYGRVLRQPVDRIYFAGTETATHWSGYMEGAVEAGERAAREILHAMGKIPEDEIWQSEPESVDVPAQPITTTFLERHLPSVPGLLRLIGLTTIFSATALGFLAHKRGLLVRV
- procedure-summary: Amine oxidase inhibition profile, MAO-B
- Type: biochemical
property-label: IC50

Task item: Name the recorded IC50 of the item NC/C=C(\F)C(F)(F)S(=O)(=O)c1ccccc1 in your answer.
Reply: > 30 µM

* * *

- procedure-summary: Rat pharmacokinetic-pharmacodynamic model, skin concentration
- Type: in vivo
- cond: topical, 400 mg of 0.5% cream on 16 cm^2, once daily for 5 days, 0.5% cream 400 mg once daily 5 days, 24 h after last dose
property-label: concentration at 24 h after the last dose (ng/g)
All answers are understood in ng/g, so give the number only.

Task item: Name the recorded concentration at 24 h after the last dose of the item NC/C=C(\F)C(F)(F)S(=O)(=O)c1ccccc1 [PXS-6302] in your answer.
Reply: 4900

* * *

- assayed-target: Human Recombinant MAO-A (Homo sapiens)
- Sequence (P21397 1-527): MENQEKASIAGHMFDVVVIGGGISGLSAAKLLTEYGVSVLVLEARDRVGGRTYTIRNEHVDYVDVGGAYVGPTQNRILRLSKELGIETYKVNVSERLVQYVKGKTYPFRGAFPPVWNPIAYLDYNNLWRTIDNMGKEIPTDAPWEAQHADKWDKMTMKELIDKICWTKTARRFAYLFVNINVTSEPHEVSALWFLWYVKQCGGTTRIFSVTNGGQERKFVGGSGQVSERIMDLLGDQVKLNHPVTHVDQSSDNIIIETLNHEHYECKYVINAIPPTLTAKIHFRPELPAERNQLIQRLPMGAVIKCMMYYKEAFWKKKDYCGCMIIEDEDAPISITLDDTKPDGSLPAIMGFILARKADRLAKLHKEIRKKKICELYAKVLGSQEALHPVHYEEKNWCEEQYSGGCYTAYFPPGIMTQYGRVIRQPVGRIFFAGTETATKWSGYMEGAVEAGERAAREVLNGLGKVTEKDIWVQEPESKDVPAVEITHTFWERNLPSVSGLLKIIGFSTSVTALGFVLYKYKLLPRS
- procedure-summary: Amine oxidase inhibition profile, MAO-A
- Format: biochemical
property-label: IC50

Task item: Name the recorded IC50 of the item NC/C=C(\F)C(F)(F)S(=O)(=O)c1ccccc1 [PXS-6302] in your answer.
Reply: > 30 µM

* * *

- assayed-target: Human Recombinant MAO-A (Homo sapiens)
- procedure-summary: Amine oxidase inhibition profile, MAO-A
- Assay type: biochemical
- cond: read-out: Recombinant MAO-A IC50
property-label: IC50

compound: N#CCCN [BAPN, β-aminoproprionitrile, reference compound]
IC50: > 30 µM

# input for lookup
Task item: Name the recorded IC50 of the item NC/C=C(\F)CS(=O)(=O)c1ccccc1 [PXS-4787] in your answer.
Reply: > 30 µM
